Data provenance: patent US8927717B1

Tested on: 60 cancer cell lines
Assay: NCI 60-cell screen, SRB, whole panel (mean, delta, range)
Assay type: cell-based
Conditions: range over the cell panel; 10^−5 molar; 48 hours; SRB
hey, just use 1 if measured Growth percent, Range is less than 90%, otherwise 0

>>> print(df.to_string())
                                   molecule  discrete_label
0    NCCNc1nc2ccccc2c2c(=O)c3cc(Cl)ccc3sc12               0
1   CN(C)c1nc2ccccc2c2c(=O)c3cc(Cl)ccc3sc12               0
2     CCNc1nc2ccccc2c2c(=O)c3cc(Cl)ccc3sc12               0
3  CN1CCN(c2nc3ccccc3c3c(=O)c4cc(Cl)ccc4sc23)CC1               0
4    O=C(O)c1c(Sc2ccc(Cl)cc2)c(O)nc2ccccc12               1
5      CNc1nc2ccccc2c2c(=O)c3cc(Cl)ccc3sc12               0
6  CN(C)CCNc1nc2ccccc2c2c(=O)c3cc(Cl)ccc3sc12               0
7  O=c1c2cc(Cl)ccc2sc2c(N3CCOCC3)nc3ccccc3c12               1
8       O=c1c2cc(Cl)ccc2sc2c(O)nc3ccccc3c12               1

----------
Notes on GI50 obtained with OVCAR-8.
Readout kind: GI50 (nM)

>>> print(df.to_string())
                                   molecule  units_label  numeric_readout
0     CCNc1nc2ccccc2c2c(=O)c3cc(Cl)ccc3sc12           nM            17700
1  CN(C)CCNc1nc2ccccc2c2c(=O)c3cc(Cl)ccc3sc12           nM             1640
2    NCCNc1nc2ccccc2c2c(=O)c3cc(Cl)ccc3sc12           nM             1890
3  O=c1c2cc(Cl)ccc2sc2c(NCc3ccccc3)nc3ccccc3c12           nM             7750
4  O=c1c2cc(Cl)ccc2sc2c(NCCCNCCO)nc3ccccc3c12           nM             1750

----------
Test system: UACC-62
Type: cell-based
Conditions: Melanoma; 10^−5 molar; 48 hours; SRB
Readout kind: Growth percent UACC-62 (%)

>>> print(df.to_string())
                                   compound      tgt            readout_kind  numeric_readout
0  O=c1c2cc(Cl)ccc2sc2c(N3CCN(Cc4ccccc4)CC3)nc3ccccc3c12 [Compound 11]  UACC-62  Growth percent UACC-62            96.00
1  CNc1nc2ccccc2c2c(=O)c3cc(Cl)ccc3sc12 [Compound N1]  UACC-62  Growth percent UACC-62            77.66
2  NCCNc1nc2ccccc2c2c(=O)c3cc(Cl)ccc3sc12 [Compound N14]  UACC-62  Growth percent UACC-62           −96.67
3  O=c1c2cc(Cl)ccc2sc2c(NCCO)nc3ccccc3c12 [Compound N9]  UACC-62  Growth percent UACC-62            76.52
4  CCC(CC)Nc1nc2ccccc2c2c(=O)c3cc(Cl)ccc3sc12 [Compound N6]  UACC-62  Growth percent UACC-62            83.74
5  CCNc1nc2ccccc2c2c(=O)c3cc(Cl)ccc3sc12 [Compound N2]  UACC-62  Growth percent UACC-62            69.06
6  O=c1c2ccc(Cl)cc2sc2c(Cl)nc3ccccc3c12 [Compound 3]  UACC-62  Growth percent UACC-62            89.69
7  CC(C)CC(C)Nc1nc2ccccc2c2c(=O)c3cc(Cl)ccc3sc12 (stereo not shown) [Compound N13]  UACC-62  Growth percent UACC-62            96.09
8  CCC(CO)Nc1nc2ccccc2c2c(=O)c3cc(Cl)ccc3sc12 (stereo not shown) [Compound N12]  UACC-62  Growth percent UACC-62            76.17
9  CN(C)CCNc1nc2ccccc2c2c(=O)c3cc(Cl)ccc3sc12 [Compound N7]  UACC-62  Growth percent UACC-62           −76.58
